Cited source for all entries: patent US5132432A

experiment: Spectral properties (absorption/emission) of new pyrenyloxy sulfonic acid dyes, Table 4; format: physicochemical; settings: 50 mM aqueous potassium phosphate buffer at pH 8.0
Where a name gives a salt, the structure may show the parent alone.
ASSAY_READOUT: Emission at 514 nm

The following compounds have reported results that may help.
Emission at 514 nm for N.N.N.NNC(=O)COc1cc(S(=O)(=O)O)c2ccc3c(S(=O)(=O)O)cc(S(=O)(=O)O)c4ccc1c2c43 [Compound 13] is 3.8 % of max

Emission at 514 nm for O=C(COc1cc(S(=O)(=O)O)c2ccc3c(S(=O)(=O)O)cc(S(=O)(=O)O)c4ccc1c2c43)NCCO [Compound 10] is 3.3 % of max

Emission at 514 nm for C=CC(=O)NCCCCCNC(=O)COc1cc(S(=O)(=O)O)c2ccc3c(S(=O)(=O)O)cc(S(=O)(=O)O)c4ccc1c2c43 [Compound 19] is 2.9 % of max

Emission at 514 nm for CC(C)(C)OC(=O)N1CCC[C@H]1C(=O)NCCNC(=O)COc1cc(S(=O)(=O)[O-])c2ccc3c(S(=O)(=O)[O-])cc(S(=O)(=O)[O-])c4ccc1c2c43.[Na+].[Na+].[Na+] [Compound 14] is 2.8 % of max

Emission at 514 nm for NCCNC(=O)COc1cc(S(=O)(=O)O)c2ccc3c(S(=O)(=O)O)cc(S(=O)(=O)O)c4ccc1c2c43 [Compound 3, trisodium salt] is 4.9 % of max

Continuing:
Emission at 514 nm for [N-]=[N+]=Nc1ccc(C(=O)NCCCCCNC(=O)COc2cc(S(=O)(=O)[O-])c3ccc4c(S(=O)(=O)[O-])cc(S(=O)(=O)[O-])c5ccc2c3c54)cc1.[Na+].[Na+].[Na+] [Compound 20] is 3.5 % of max

Emission at 514 nm for N#CCCCCCNC(=O)COc1cc(S(=O)(=O)O)c2ccc3c(S(=O)(=O)O)cc(S(=O)(=O)O)c4ccc1c2c43 [Compound 16] is 3.0 % of max

Emission at 514 nm for COC(=O)COc1cc(OCC(=O)OC)c2ccc3c(S(=O)(=O)O)cc(S(=O)(=O)O)c4ccc1c2c43 [Compound 21, disodium salt] is 13.0 % of max

Emission at 514 nm for NNC(=O)COc1cc(S(=O)(=O)[O-])c2ccc3c(S(=O)(=O)[O-])cc(S(=O)(=O)[O-])c4ccc1c2c43.[Na+].[Na+].[Na+] [Compound 12] is 3.9 % of max

====

assay: Spectral properties (absorption/emission) of new pyrenyloxy sulfonic acid dyes, Table 4; format: physicochemical; details: first (longer-wavelength) maximum; 50 mM aqueous potassium phosphate buffer at pH 8.0
Counter-ions that a name gives are not always drawn.
ASSAY_READOUT: Abs Max (nm)
Lab book: enter the figure in nm, no units written.

The following compounds have reported results that may help.
Abs Max for "N.N.N.NNC(=O)COc1cc(S(=O)(=O)O)c2ccc3c(S(=O)(=O)O)cc(S(=O)(=O)O)c4ccc1c2c43" is 399

Abs Max for "O=C(COc1cc(S(=O)(=O)O)c2ccc3c(S(=O)(=O)O)cc(S(=O)(=O)O)c4ccc1c2c43)NCCO" is 399

Abs Max for "NNC(=O)COc1cc(S(=O)(=O)[O-])c2ccc3c(S(=O)(=O)[O-])cc(S(=O)(=O)[O-])c4ccc1c2c43.[Na+].[Na+].[Na+]" is 399

Abs Max for "CC(C)(C)OC(=O)N1CCC[C@H]1C(=O)NCCNC(=O)COc1cc(S(=O)(=O)[O-])c2ccc3c(S(=O)(=O)[O-])cc(S(=O)(=O)[O-])c4ccc1c2c43.[Na+].[Na+].[Na+]" is 399

Abs Max for "C=CC(=O)NCCCCCNC(=O)COc1cc(S(=O)(=O)O)c2ccc3c(S(=O)(=O)O)cc(S(=O)(=O)O)c4ccc1c2c43" is 399

Continuing:
Abs Max for NCCNC(=O)COc1cc(S(=O)(=O)O)c2ccc3c(S(=O)(=O)O)cc(S(=O)(=O)O)c4ccc1c2c43 [Compound 3, trisodium salt] is 399

Abs Max for "NNC(=O)COc1cc(S(=O)(=O)O)c2ccc3c(S(=O)(=O)O)cc(S(=O)(=O)O)c4ccc1c2c43" is 399

Abs Max for COC(=O)COc1cc(OCC(=O)OC)c2ccc3c(S(=O)(=O)O)cc(S(=O)(=O)O)c4ccc1c2c43 [Compound 21, disodium salt] is 396

Abs Max for "CC(C)(C)OC(=O)N1CCC[C@H]1C(=O)NCCCCCNC(=O)COc1cc(S(=O)(=O)O)c2ccc3c(S(=O)(=O)O)cc(S(=O)(=O)O)c4ccc1c2c43" is 399

Abs Max for "[N-]=[N+]=Nc1ccc(C(=O)NCCCCCNC(=O)COc2cc(S(=O)(=O)[O-])c3ccc4c(S(=O)(=O)[O-])cc(S(=O)(=O)[O-])c5ccc2c3c54)cc1.[Na+].[Na+].[Na+]" is 400

Abs Max for "N#CCCCCCNC(=O)COc1cc(S(=O)(=O)O)c2ccc3c(S(=O)(=O)O)cc(S(=O)(=O)O)c4ccc1c2c43" is 399

====

Test: Comparison of spectral properties of reactive dyes, Table 1
Type: physicochemical
Details: in aqueous solution; grade in words
Source text: A number of dyes have been proposed in the literature that can be excited and detected at wavelengths less than 500 nm. Several chemically reactive fluorophores that can be excited in the near ultraviolet and short wavelength visible region of the spectrum have been described. […]
ASSAY_READOUT: Quantum Yield

The following compounds have reported results that may help.
Quantum Yield for "CC(=O)Nc1ccc(/C=C/c2ccc(N=C=S)cc2S(=O)(=O)O)c(S(=O)(=O)O)c1" is low

Quantum Yield for "O=C(O)CCCc1ccc2ccc3cccc4ccc1c2c34" is low

Quantum Yield for "CN(C)c1cccc2c(S(=O)(=O)O)cccc12" is low

Quantum Yield for "Cc1c(CC(=O)O)c(=O)oc2cc(N)ccc12" is med.

Quantum Yield for "Cc1c(CC(=O)O)c(=O)oc2cc(O)ccc12" is med.

Quantum Yield for "NNC(=O)COc1cc(S(=O)(=O)[O-])c2ccc3c(S(=O)(=O)[O-])cc(S(=O)(=O)[O-])c4ccc1c2c43.[Na+].[Na+].[Na+]" is high

Switching to the query record.
Quantum Yield for "O=S(=O)(O)c1cc(N=C=S)c2ccc3c(S(=O)(=O)O)cc(S(=O)(=O)O)c4ccc1c2c34" is low
